- assayedTarget: IDH1-R132H recombinant protein (Homo sapiens (Human), UniProt O75874, R132H)
- Sequence (O75874 whole entry R132H): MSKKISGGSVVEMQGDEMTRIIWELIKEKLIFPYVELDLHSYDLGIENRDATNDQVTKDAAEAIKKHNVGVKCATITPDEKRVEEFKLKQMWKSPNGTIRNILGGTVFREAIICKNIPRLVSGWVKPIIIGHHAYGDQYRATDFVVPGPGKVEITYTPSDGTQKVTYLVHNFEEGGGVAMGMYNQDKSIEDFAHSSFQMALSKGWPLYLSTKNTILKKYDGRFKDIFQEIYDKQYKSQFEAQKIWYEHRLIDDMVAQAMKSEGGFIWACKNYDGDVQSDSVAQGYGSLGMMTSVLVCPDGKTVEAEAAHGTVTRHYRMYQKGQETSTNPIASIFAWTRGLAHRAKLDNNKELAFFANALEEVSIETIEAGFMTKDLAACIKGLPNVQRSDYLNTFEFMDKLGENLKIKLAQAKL
- assaySummary: IDH1-R132H enzymatic assay
- Assay type: biochemical
- measurementSetup: inhibition of NADPH consumption, diaphorase/resazurin readout; read-out: Enzyme IDH1 R132H Range IC50
metric: IC50

Study these solved cases before continuing.
- smilesCode: "Cc1cc(C)nc(NCc2cc3cc(Cl)ccc3[nH]c2=O)c1"
  resultValue: "1000 to 10000 nM"
- smilesCode: "COc1nc(N[C@@H](C)c2cc3cc(Cl)ccc3[nH]c2=O)ccc1C#N"
  resultValue: "< 100 nM"

Pending molecule:
Provide only the value of recorded IC50 for O=c1[nH]c2ccc(Cl)cc2cc1CNc1cccnc1O
1000 to 10000 nM
